Hey, just so you know, these numbers are from patent US8969386B2.

This section presents compounds with their documented Emax values.
Biological target: ΔF508-CFTR (Homo sapiens, UniProt P13569, DEL508-508)
Construct: expressed in transfected cells
Sequence (P13569 with tags, fused parts or gaps DEL508-508): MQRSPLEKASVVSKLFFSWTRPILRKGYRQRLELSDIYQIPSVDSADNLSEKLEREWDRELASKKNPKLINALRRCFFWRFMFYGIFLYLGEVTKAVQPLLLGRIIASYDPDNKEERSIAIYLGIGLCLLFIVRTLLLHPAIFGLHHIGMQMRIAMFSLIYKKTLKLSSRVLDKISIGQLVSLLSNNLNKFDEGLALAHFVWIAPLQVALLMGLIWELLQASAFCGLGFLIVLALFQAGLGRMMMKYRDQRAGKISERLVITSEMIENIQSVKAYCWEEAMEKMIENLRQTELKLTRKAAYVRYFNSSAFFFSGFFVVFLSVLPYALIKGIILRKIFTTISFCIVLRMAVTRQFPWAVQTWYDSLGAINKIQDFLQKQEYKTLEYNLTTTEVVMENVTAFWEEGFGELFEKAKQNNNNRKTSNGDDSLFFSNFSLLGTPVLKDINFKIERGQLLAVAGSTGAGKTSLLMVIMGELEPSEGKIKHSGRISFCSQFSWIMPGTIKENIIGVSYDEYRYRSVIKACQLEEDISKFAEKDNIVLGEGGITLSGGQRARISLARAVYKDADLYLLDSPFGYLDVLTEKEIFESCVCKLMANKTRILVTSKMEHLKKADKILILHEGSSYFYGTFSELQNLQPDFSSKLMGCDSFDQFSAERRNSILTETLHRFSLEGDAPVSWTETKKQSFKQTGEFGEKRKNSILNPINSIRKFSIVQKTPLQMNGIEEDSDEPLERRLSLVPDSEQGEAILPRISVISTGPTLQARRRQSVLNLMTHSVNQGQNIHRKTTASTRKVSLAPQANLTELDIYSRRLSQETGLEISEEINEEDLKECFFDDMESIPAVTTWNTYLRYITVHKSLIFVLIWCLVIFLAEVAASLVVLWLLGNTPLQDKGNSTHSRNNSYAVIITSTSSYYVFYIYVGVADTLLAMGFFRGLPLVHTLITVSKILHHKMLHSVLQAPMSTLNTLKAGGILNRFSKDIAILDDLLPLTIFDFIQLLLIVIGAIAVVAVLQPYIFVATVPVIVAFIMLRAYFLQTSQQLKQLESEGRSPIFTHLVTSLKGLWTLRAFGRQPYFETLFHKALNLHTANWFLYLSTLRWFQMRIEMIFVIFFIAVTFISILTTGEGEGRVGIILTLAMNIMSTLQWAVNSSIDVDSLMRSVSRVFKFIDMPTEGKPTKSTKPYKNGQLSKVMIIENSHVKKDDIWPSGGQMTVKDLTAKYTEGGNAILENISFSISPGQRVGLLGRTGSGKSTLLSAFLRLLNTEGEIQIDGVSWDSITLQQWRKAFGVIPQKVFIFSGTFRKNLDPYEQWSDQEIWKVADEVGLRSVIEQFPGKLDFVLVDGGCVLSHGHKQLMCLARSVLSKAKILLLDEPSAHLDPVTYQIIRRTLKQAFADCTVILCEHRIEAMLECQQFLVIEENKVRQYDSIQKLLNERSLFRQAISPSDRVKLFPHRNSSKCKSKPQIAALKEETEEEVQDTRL
Test: ΔF508-CFTR correction, membrane potential optical (FRET/VIPR) assay
Assay type: cell-based
Conditions: NIH3T3 mouse fibroblasts stably expressing ΔF508-CFTR; read-out: % Efficacy

Tell me reported Emax for `CCc1ccc(NC(=O)C2(c3ccc4c(c3)OC(F)(F)O4)CC2)nc1-c1ccc(OC)nc1` , tested with ΔF508-CFTR (Homo sapiens, UniProt P13569, DEL508-508).
50 to 100%

Notebook entry, ΔF508-CFTR (Homo sapiens, UniProt P13569, DEL508-508) assay: Emax of `CC(=O)Nc1cc(-c2nc(NC(=O)C3(c4ccc5c(c4)OC(F)(F)O5)CC3)ccc2C)c[nH]c1=O` = ?
50 to 100%

* * *

Molecular target: ΔF508-CFTR (Homo sapiens, UniProt P13569, DEL508-508)
Construct: expressed in transfected cells
Assay: ΔF508-CFTR correction, membrane potential optical (FRET/VIPR) assay
Assay type: cell-based
Conditions: NIH3T3 mouse fibroblasts stably expressing ΔF508-CFTR; read-out: % Efficacy
Quantity name: Emax

compound="COc1cc(C)c(-c2nc(NC(=O)C3(c4ccc5c(c4)OC(F)(F)O5)CC3)cc(C)c2C)cn1 [Compound 89]" result="> 100%"
compound="Cc1ccc(NC(=O)C2(c3ccc4c(c3)OC(F)(F)O4)CC2)nc1-c1ccc(=O)n(CCO)c1 [Compound 20]" result="> 100%"
compound="Cc1cc(NC(=O)C2(c3ccc4c(c3)OC(F)(F)O4)CC2)nc(-c2c[nH]c(=O)c(C)c2)c1 [Compound 107]" result="> 100%"
compound="Cc1ccc(NC(=O)C2(c3ccc4c(c3)CCO4)CC2)nc1-c1cc[nH]c(=O)c1 [Compound 80]" result="50 to 100%"

Given the entry Cc1ccc(NC(=O)C2(c3ccc4c(c3)OC(F)(F)O4)CC2)nc1-c1cc(Cl)c[nH]c1=O [Compound 85] , report its measured Emax.
> 100%

Suppose we examine the compound Cc1cc(=O)[nH]cc1-c1nc(NC(=O)C2(c3ccc4c(c3)OC(F)(F)O4)CC2)ccc1C [Compound 14] ; what Emax value has been reported?
50 to 100%

Quick one: Emax of Cc1ccc(NC(=O)C2(c3ccc4c(c3)OC(F)(F)O4)CC2)nc1-c1ccc[nH]c1=O [Compound 46] ?
50 to 100%
